B1: KLHL20 (parent)
chain: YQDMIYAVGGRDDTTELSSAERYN

variants of: B1; experiment: protein stability index of a GFP-peptide fusion (GPS, HEK-293T) (PSI 1-6); higher = more stable; settings: c terminus: a fixed tail appended;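 note: lentivirally expressed fusions sorted by FACS into six bins by GFP to DsRed ratio, PSI derived from sequencing read proportions per bin multiplied by bin number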
List of protein stability index values.
assay-readout: protein stability index

- YQDVIYAVGGRDDTTELSSAERYN [M4V]: 3.02
- YQDMIYAVGWRDDTTELSSAERYN [G10W]: 1.91
- YQDMIYAVGGRDDTTELNSAERYN [S18N]: 2.66
- YQDMIQAVGGRDDTTELSSAERYN [Y6Q]: 3.87
- YQDMIYAVGGRDDTTELSSAEVYN [R22V]: 2.52
- YQDMIYAVGGRDDTTELSSAERQN [Y23Q]: 3.05
- YQDMIYAVGGRTDTTELSSAERYN [D12T]: 1.58
- YQDMIYAVGGRDDGTELSSAERYN [T14G]: 2.47
- YIDMIYAVGGRDDTTELSSAERYN [Q2I]: 1.58
- YQDMIYIVGGRDDTTELSSAERYN [A7I]: 1.8
- YQDPIYAVGGRDDTTELSSAERYN [M4P]: 2.6
